# system: murine BACE1 ECD; also: test concentration or dose not given here
# Sequence (single chain, as listed by the source limits assumed): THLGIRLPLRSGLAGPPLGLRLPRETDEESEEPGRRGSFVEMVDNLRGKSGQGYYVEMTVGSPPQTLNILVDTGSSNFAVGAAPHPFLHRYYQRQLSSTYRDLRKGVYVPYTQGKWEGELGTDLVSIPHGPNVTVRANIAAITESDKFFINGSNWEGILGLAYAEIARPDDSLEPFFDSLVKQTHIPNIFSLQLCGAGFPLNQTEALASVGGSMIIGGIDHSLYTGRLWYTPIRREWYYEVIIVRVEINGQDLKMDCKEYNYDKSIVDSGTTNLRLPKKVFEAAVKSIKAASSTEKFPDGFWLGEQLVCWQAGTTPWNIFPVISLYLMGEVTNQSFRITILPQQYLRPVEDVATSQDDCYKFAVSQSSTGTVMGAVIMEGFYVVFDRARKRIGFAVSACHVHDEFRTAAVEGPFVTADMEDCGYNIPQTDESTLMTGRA
# experimental-details: cell-based or functional assay
observation-type: % inhibition, FRET short substrate assay (negative = activation) (%)
Number only, in %; omit the unit.

{"binder": "5875 (antibody, V domains shown) VH: EVQLLESGGGLVQPGGSLRLSCAASGFTFSTYAMGWVRQAPGKGLEWVSATSGSGGSTYYADSVKGRFTISRDNSKNTLYLQMNSLRAEDTAVYYCAKGGSQWLYAPGSWFDPWGQGTLVTVSS VL: EIVLTQSPATLSLSPGERATLSCRASQSVSSYLAWYQQKPGQAPRLLIYDASNRATGIPARFSGSGSGTDFTLTISSLEPEDFAVYYCVQRSNFPWTFGGGTKVEIK", "value": 39}
{"binder": "5888 (antibody, V domains shown) VH: QVQLVQSGAEVKKPGSSVKVSCKASGGTFWKYAISWVRQAPGQGLEWMGNIIPGFGTANYAQKFRGRVTITADESTSTAYMELSSLRSEDTAVYYCARSGGTKYGMLDVWGQGTMVTVSS VL: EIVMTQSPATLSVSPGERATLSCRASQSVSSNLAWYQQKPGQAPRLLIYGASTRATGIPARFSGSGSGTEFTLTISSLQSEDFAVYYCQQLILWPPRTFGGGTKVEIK", "value": -183}
{"binder": "5874 (antibody, V domains shown) VH: EVQLLESGGGLVQPGGSLRLSCAASGFTFGSYAMSWVRQAPGKGLEWVSATSGSGGSTYYADSVKGRFTISRDNSKNTLYLQMDSLRAEDTAVYYCAKGGSQWLYAPGSWFDPWGQGTLVTVSS VL: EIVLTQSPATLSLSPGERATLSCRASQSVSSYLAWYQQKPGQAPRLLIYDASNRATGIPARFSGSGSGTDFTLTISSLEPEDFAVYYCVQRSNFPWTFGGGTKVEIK", "value": 33}

Next item in the queue.
Would you kindly share the measured % inhibition, FRET short substrate assay (negative = activation) for 5892 (antibody, V domains shown) VH: QVQLVQSGAEVKKPGSSVKVSCKASGGTFSSYAISWVRQAPGQGLEWMGNIIPIFGTATYAQKFQGRVTITADESTSTAYMELSSLRSEDTAVYYCARSGGTKYGMLDVWGQGTMVTVSS VL: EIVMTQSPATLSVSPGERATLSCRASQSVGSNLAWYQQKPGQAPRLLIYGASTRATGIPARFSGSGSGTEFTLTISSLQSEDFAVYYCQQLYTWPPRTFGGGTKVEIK ?
64

Each recorded value in this set is attributed to patent US20210206877A1.
